Reference source: patent US9321747B2

tested_system: recombinant human CETP protein (Homo sapiens (Human), UniProt P11597)
Sequence (P11597 18-493): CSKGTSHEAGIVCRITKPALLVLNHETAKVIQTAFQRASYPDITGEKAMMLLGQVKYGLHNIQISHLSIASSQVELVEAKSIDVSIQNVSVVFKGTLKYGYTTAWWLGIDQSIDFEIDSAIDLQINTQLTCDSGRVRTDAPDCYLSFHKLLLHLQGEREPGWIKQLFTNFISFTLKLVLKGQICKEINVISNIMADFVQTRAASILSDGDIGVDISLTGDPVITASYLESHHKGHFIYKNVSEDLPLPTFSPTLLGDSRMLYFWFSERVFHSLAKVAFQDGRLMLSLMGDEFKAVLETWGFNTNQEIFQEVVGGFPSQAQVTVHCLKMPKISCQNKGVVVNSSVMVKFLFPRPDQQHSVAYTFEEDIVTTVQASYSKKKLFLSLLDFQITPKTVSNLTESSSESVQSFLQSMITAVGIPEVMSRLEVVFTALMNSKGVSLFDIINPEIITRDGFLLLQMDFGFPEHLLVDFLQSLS
assay_overview: Test of CETP inhibition activity (in vitro, buffer-based)
Assay type: biochemical
run_conditions: [14C]-cholesteryl ester transfer from reconstituted HDL to acceptor lipoprotein, 37° C., 60 minutes, PBS buffer, dihydrochloride
Structures can show the parent of a compound that is named as a salt.
Define the label as yes when IC50 is strictly less than 40 nM and as no in all remaining cases.

Some entries whose results are on file:
CC1(C)Cc2nc(C3CCN(c4ncc(OCC(CO)CO)cn4)CC3)c([C@@H](F)c3ccc(C(F)(F)F)cc3)c(C3CCC(F)(F)CC3)c2[C@@H](O)C1 [Example 1, dihydrochloride]; yes
CC1(C)Cc2nc(C3CCN(c4ncc(OC[C@H](O)CO)cn4)CC3)c([C@@H](F)c3ccc(C(F)(F)F)cc3)c(C3CCC(F)(F)CC3)c2[C@@H](O)C1 [Example 15, dihydrochloride]; yes
CC1(C)Cc2nc(C3CCN(c4ncc(OCCCS(C)(=O)=O)cn4)CC3)c([C@@H](F)c3ccc(C(F)(F)F)cc3)c(C3CCC(F)(F)CC3)c2[C@@H](O)C1 [Example 17, dihydrochloride]; yes
CC1(C)Cc2nc(C3CCN(c4ncc(-c5cccc(C(=O)O)c5)cn4)CC3)c([C@@H](F)c3ccc(C(F)(F)F)cc3)c(C3CCC(F)(F)CC3)c2[C@@H](O)C1 [Example 20, dihydrochloride]; no
CC1(C)Cc2nc(C3CCN(c4ncc(OC[C@@H](O)CO)cn4)CC3)c([C@@H](F)c3ccc(C(F)(F)F)cc3)c(C3CCC(F)(F)CC3)c2[C@@H](O)C1 [Example 13, dihydrochloride]; no

Take the compound CC1(C)Cc2nc(C3CCN(c4ncc(OCC(C)(CO)CO)cn4)CC3)c([C@@H](F)c3ccc(C(F)(F)F)cc3)c(C3CCC(F)(F)CC3)c2[C@@H](O)C1 [Example 4, dihydrochloride] and say whether its IC50 is less than 40 nM.
yes
